Entry source: PubChem BioAssay (NCI)

System: SK-MEL-28 melanoma
protocol: NCI tumour cell line growth inhibition, 48 h
Recorded GI50 values for a group of molecules are listed next.
property: GI50

{"columns": ["molecule", "system_tested", "result"],
 "data": [
  ["COC(=O)Nc1nc2ccc(Sc3ccc(NC(=O)Nc4cc(C(F)(F)F)ccc4F)cc3)cc2[nH]1", "SK-MEL-28 melanoma", "2.81 µM"],
  ["OCCCCC#Cc1ccccc1C#Cc1cnccn1", "SK-MEL-28 melanoma", "43.4 µM"],
  ["Cn1c(COC(=O)NCCN2CCOCC2)nc2c(N3CCOCC3)nc(-c3ccccc3)nc21", "SK-MEL-28 melanoma", "1.51 µM"],
  ["COc1cc(C(=O)N/N=C/c2cccc([N+](=O)[O-])c2)cc(OC)c1OC", "SK-MEL-28 melanoma", "39.3 µM"],
  ["CCCCCCCCCCCCCCCCCC1=NC(C)(C)CN1CCO", "SK-MEL-28 melanoma", "1.81 µM"],
  ["CN1CCN(C(=S)SCN2C(=O)c3ccccc3S2(=O)=O)CC1", "SK-MEL-28 melanoma", "14.4 µM"],
  ["CN(C)c1ccc(Sc2ccc3nc(N)nc(N)c3c2)cc1", "SK-MEL-28 melanoma", "2.76 µM"],
  ["Cc1cc2c(cc1Cl)SC1=NN(C)C(c3ccccc3O)N1S2(=O)=O (stereo not given)", "SK-MEL-28 melanoma", "86.2 µM"],
  ["O=c1[nH]c(-c2ccccn2)nc2sc3c(c12)CCCCCC3", "SK-MEL-28 melanoma", "6.01 µM"],
  ["C[C@]12CC[C@@H]3c4ccc(O)cc4CC[C@H]3[C@@H]1CC[C@@H]2NS(=O)(=O)c1ccc(-c2ccccc2)cc1", "SK-MEL-28 melanoma", "5.52 µM"]
]}
